# maps each entry to its CLint scaled
- assay: Human liver microsomal stability experiment
- Format: in vitro ADME
- conditions: human liver microsomes; 45 mg/g, 20.7 g/kg scaling
Answer format: numeric, mL/min/kg implied, no suffix.

[
  {
    "compound": "CCn1c(-c2cc(C#CCN3CCC(O)CC3)cnc2C(C)OC)c2c3cc(ccc31)-c1csc(n1)CC(NC(=O)C1C(C)C1C)C(=O)N1CCCC(N1)C(=O)OCC(C)(C)C2 (atropisomer, axis not shown; (Ra)) [Compound Z11]",
    "CLint scaled / mL/min/kg": 52.9
  },
  {
    "compound": "CCn1c(-c2cc(C#CCN3CCC(C#N)(CN)CC3)cnc2[C@H](C)OC)c2c3cc(ccc31)-c1csc(n1)C[C@H](NC(=O)[C@H]1[C@H](C)[C@@H]1C)C(=O)N1CCC[C@H](N1)C(=O)OCC(C)(C)C2 (atropisomer, axis not shown; (Ra)) [Compound Z181]",
    "CLint scaled / mL/min/kg": 36.9
  },
  {
    "compound": "CCn1c(-c2cc(C#CCN3CCN(C(C)=O)CC3)cnc2[C@H](C)OC)c2c3cc(ccc31)-c1csc(n1)C[C@H](NC(=O)[C@H]1[C@H](C)[C@@H]1C)C(=O)N1CCC[C@H](N1)C(=O)OCC(C)(C)C2 (atropisomer, axis not shown) [Control compound 2]",
    "CLint scaled / mL/min/kg": 164
  }
]

Note: attention shifts to another entry.
Task: CLint scaled lookup needed for CCn1c(-c2cc(C#CCN3CCC(C#N)CC3)cnc2C(C)OC)c2c3cc(ccc31)-c1csc(n1)CC(NC(=O)C1C3COCC31)C(=O)N1CCCC(N1)C(=O)OCC(C)(C)C2 (atropisomer, axis not shown; (Ra)) [Compound Z56] , thanks.
Result: 68.9
